Assay: Displacement of N-[3H]ethyladenosin-5'-uronamide from adenosine receptor A2 in rat striatal membranes by liquid scintillation counting method
Assay type: cell membranes, Striatum, Membrane
Readout kind: Ki (nM)
Reply numerically in nM, unit not repeated.

# get_value(readout='Ki', item= "CCCn1c(=O)c2[nH]c(C3CCCC3)nc2n(CCC)c1=O" )
590

* * *

The following compounds are shown together with reported EC50 values.
Molecular target: Growth hormone secretagogue receptor type 1 (Rattus norvegicus, UniProt O08725)
Sequence (O08725 whole entry): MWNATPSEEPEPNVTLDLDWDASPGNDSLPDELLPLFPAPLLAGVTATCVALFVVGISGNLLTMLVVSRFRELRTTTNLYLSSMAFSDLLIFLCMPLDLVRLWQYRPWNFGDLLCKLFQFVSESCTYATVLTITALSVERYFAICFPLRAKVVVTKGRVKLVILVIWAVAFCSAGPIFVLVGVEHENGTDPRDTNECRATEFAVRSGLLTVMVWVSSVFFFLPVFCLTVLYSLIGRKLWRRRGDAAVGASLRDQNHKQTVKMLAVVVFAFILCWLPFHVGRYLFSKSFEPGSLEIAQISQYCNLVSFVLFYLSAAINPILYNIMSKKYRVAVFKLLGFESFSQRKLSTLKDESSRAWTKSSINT
Assay: Agonist activity at GHSR in Wistar rat pituitary gland cells assessed as induction of GH release by RIA
Assay type: tissue-based, Pituitary gland cell
Reply numerically in nM, unit not repeated.

In [3]: df
Out[3]:
                                   compound  readout_kind  unit_symbol  test_value
0  CN1N=C2CCN(C(=O)[C@@H](COCc3ccccc3)NC(=O)C(C)(C)N)C[C@@]2(Cc2ccccc2)C1=O          EC50           nM           3

Next:
# get_value(readout='EC50', item= O=C(NC(Cc1c[nH]c2ccccc12)C(=O)N1CCC2(CCc3ccccc32)CC1)NC1CN2CCC1CC2 (configuration not stated) )
50
